Measured values drawn from patent US7473790B2 for this set.

target: HCV polymerase (Hepatitis C virus genotype 1b, UniProt P26663); construct: 2.5 pmoles (0.15 μg) HCV polymerase protein in a final volume of 75 μL; assay: HCV polymerase primer/template-directed transcription assay (32P-GTP incorporation, filter binding); type: biochemical; settings: recombinant HCV polymerase; 30 minutes at 30° C.; concentration giving 50% inhibition of polymerase-directed transcription; read-out: IC50
Sequence (P26663 2420-3010): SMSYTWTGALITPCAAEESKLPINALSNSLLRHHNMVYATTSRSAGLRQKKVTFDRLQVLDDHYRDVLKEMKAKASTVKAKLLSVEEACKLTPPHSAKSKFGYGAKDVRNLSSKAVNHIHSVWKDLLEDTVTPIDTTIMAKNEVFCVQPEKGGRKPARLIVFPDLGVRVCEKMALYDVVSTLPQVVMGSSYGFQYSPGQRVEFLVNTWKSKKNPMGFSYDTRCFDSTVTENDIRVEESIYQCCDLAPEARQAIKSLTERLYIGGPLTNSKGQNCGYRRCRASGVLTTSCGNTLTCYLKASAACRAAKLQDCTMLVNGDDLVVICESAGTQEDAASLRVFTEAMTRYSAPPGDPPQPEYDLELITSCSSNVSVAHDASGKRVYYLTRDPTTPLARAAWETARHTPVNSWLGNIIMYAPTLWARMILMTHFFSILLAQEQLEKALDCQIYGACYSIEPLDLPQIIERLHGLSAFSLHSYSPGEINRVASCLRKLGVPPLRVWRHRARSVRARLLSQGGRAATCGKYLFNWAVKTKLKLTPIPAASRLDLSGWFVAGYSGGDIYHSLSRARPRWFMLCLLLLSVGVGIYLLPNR
measured.quantity: pIC50
Answer as the number alone; pIC50 is minus log10 of concentration in mol/L.

Examples with answers:
> print(dat)
                                   molecule  measured.quantity  experimental.value
1  CNS(=O)(=O)c1ccc(CCC2(C3CCCC3)CC(=O)CC(=O)O2)cc1F (stereo not shown)              pIC50                4.91
2  CCc1ccc(O)c(CCC2(C3CCCC3)CC(O)=C(Cc3nc4ncc(C)cn4n3)C(=O)O2)c1 (single isomer, unassigned; enantiomer 2) [A(175)]              pIC50                8.05
3  CCc1cc(CCC2(C3CCCC3)CC(O)=C(Cc3nc4ncc(C)cn4n3)C(=O)O2)c(OC)cc1O (racemic) [A(212)]              pIC50                8.40

Please turn your attention to the following entry.
// pIC50 value for CC1(c2ccc(CCC3(C4CCCC4)CC(=O)CC(=O)O3)cc2Cl)OCCO1 (stereo not shown) : 6.24

---

target: HCV polymerase (Hepatitis C virus genotype 1b, UniProt P26663); construct: 2.5 pmoles (0.15 μg) HCV polymerase protein in a final volume of 75 μL; assay: HCV polymerase primer/template-directed transcription assay (32P-GTP incorporation, filter binding); assay type: biochemical; conditions: recombinant HCV polymerase; 30 minutes at 30° C.; concentration giving 50% inhibition of polymerase-directed transcription; read-out: IC50
# note: boundary value 10 nM maps to No; IC50 below it maps to Yes

Reference set (5 entries):
> print(dat)
                                   compound                        measurement.target  assigned.class
1  Cc1cc(C)n2nc(CC3=C(O)CC(CCc4ccc5c(c4)OC(F)(F)C(F)(F)O5)(C4CCCC4)OC3=O)nc2n1 (stereo not shown)  HCV polymerase (Hepatitis C virus genotype 1b, UniProt P26663)              No
2  CCc1cc(CCC2(C3CCCC3)CC(O)=C(Cc3nc4ncccn4n3)C(=O)O2)c(OC)cc1O (single isomer, unassigned) [A(208)]  HCV polymerase (Hepatitis C virus genotype 1b, UniProt P26663)             Yes
3  CC(=O)N[C@H](C)c1ccc(CCC2(C3CCCC3)CC(=O)CC(=O)O2)cc1 (stereo partly shown)  HCV polymerase (Hepatitis C virus genotype 1b, UniProt P26663)              No
4  COc1ccc(CCC2(C3CCCC3)CC(O)=C(Cc3nc4nc(C)cc(C)n4n3)C(=O)O2)cc1C (stereo not shown)  HCV polymerase (Hepatitis C virus genotype 1b, UniProt P26663)              No
5  CCc1cc(CCC2(C3CCCC3)CC(O)=C(Cc3nc4nc(C)cc(C)n4n3)C(=O)O2)cc(CC)c1O (stereo not shown)  HCV polymerase (Hepatitis C virus genotype 1b, UniProt P26663)             Yes

Then this compound:
I wonder whether CC(C)(C#N)c1ccc(CCC2(C3CCCC3)CC(O)=C(Cc3cn4cccnc4n3)C(=O)O2)cc1F (stereo not shown) has IC50 below 10 nM. Can you tell? No

---

target: HCV polymerase (Hepatitis C virus genotype 1b); construct: 2.5 pmoles (0.15 μg) HCV polymerase protein in a final volume of 75 μL; test: HCV polymerase primer/template-directed transcription assay (32P-GTP incorporation, filter binding); format: biochemical; settings: recombinant HCV polymerase; 30 minutes at 30° C.; concentration giving 50% inhibition of polymerase-directed transcription; read-out: IC50
pIC50: −log10 of the molar value.
Use pIC50 to assign classes; range list: lowest: < 6; middle: ≥ 6 and < 7; highest: ≥ 7

Please review the following examples before continuing.
> print(dat)
                                   compound  assigned.class
1  COc1ccc(CCC2(C3CCCC3)CC(O)=C(Sc3nnc(-c4ccncc4)[nH]3)C(=O)O2)cc1Cl (centres unmarked)         highest
2  Cc1cc(C(=O)NCC(C)(C)c2cccc(CCC3(C4CCCC4)CC(=O)CC(=O)O3)c2)oc1C (centres unmarked)          lowest

Given O=C1CC(=O)OC(CCc2ccc(O)c(Cl)c2)(C2CCCC2)C1 (centres unmarked) , name the class its pIC50 places it in. lowest

In plain terms, what class is COc1cc(OC)c(CCC2(C3CCCC3)CC(O)=C(Sc3nnc(O)n3C(C)C)C(=O)O2)cc1Cl (centres unmarked) ? highest

Textbook exercise: identify the category of the compound given here, CCc1cc(CCC2(C3CCCC3)CC(O)=C(Cc3nc4ncccn4n3)C(=O)O2)c(OC)cc1O (single isomer, unassigned) [A(209)] , according to its measured value. highest

For COc1ccc(CCC2(C3CCCC3)CC(O)=C(Sc3ncc[nH]3)C(=O)O2)cc1Cl (centres unmarked) , which pIC50 bin applies? middle

Assign a category based on measured pIC50 for CCc1nc(C)c(CC2=C(O)CC(CCc3ccc(C(C)(C)C#N)c(F)c3)(C3CCCC3)OC2=O)[nH]1 (centres unmarked) and give only the class name. middle

Band assignment needed for CC1(c2cccc(CCC3(C4CCCC4)CC(=O)CC(=O)O3)c2)CC(=O)CC(=O)O1 (centres unmarked) please. lowest

Please classify: COc1cc(C(C)(C)C#N)c(F)cc1CCC1(C2CCCC2)CC(O)=C(Cc2nc3ncc(C)cn3n2)C(=O)O1 (centres unmarked) highest

Assign a bin to COc1cc(OC)c(CCC2(C3CCCC3)CC(O)=C(Sc3nnc(-c4cccnc4)n3C)C(=O)O2)cc1Cl (centres unmarked) highest

---

molecular target: HCV polymerase (Hepatitis C virus genotype 1b); construct: 2.5 pmoles (0.15 μg) HCV polymerase protein in a final volume of 75 μL; test: HCV polymerase primer/template-directed transcription assay (32P-GTP incorporation, filter binding); format: biochemical; settings: recombinant HCV polymerase; 30 minutes at 30° C.; concentration giving 50% inhibition of polymerase-directed transcription; read-out: IC50
In this section, each of the compounds is paired with its reported IC50.
Note: unit nM is implicit; provide only the numeric part.

> print(dat)
                                   compound  experimental.value
1  COc1ccc(CCC2(C3CCCC3)CC(O)=C(Sc3nc4cc(Cl)c(F)cc4[nH]3)C(=O)O2)cc1Cl (stereo not shown) [C(61)]                 140
2  COc1ccc(CCC2(C3CCCC3)CC(O)=C(Sc3nc(C)cc(C)c3C#N)C(=O)O2)cc1Cl (stereo not shown) [C(105)]                 200
3  CCc1cc(CCC2(C3CCCC3)CC(O)=C(Cc3nc4ncc(Cl)cn4n3)C(=O)O2)ccc1O (racemic) [A(272)]                   6
4  CC(C)(C#N)c1ccc(CCC2(C3CCCC3)CC(O)=C(Cc3cn[nH]c3)C(=O)O2)cc1F (stereo not shown) [B(93)]                  90
5  CC(C)(C#N)c1ccc(CCC2(C3CCCC3)CC(=O)C(Cc3nc4ncc(Cl)cn4n3)C(=O)O2)cc1F (stereo not shown) [A(111)]                   2
6  COc1cc(OC)c(CCC2(C3CCCC3)CC(O)=C(Cc3nc(C)nn3C)C(=O)O2)cc1Cl (stereo not shown) [B(71)]                  80
7  Cc1cc(C)n2nc(CC3C(=O)CC(CCc4cccc(C(C)C)c4)(C4CCCC4)OC3=O)nc2n1 (stereo not shown) [B(49)]                  10
8  COc1ccc(CCC2(C3CCCC3)CC(O)=C(Sc3nnc(CN(C)C)n3C)C(=O)O2)cc1Cl (stereo not shown) [C(97)]                 120

Lookup result for O=C1CC(=O)OC(CCc2ccc(O)c(CO)c2)(C2CCCC2)C1 (stereo not shown) [A(195)] ; measured IC50: 11000

Reported IC50 ( CC(C)Oc1ccc(CCC2(C3CCCC3)CC(O)=C(Sc3nc4cc(Cl)ccc4[nH]3)C(=O)O2)cc1Cl (stereo not shown) [C(26)] ) = 130

Value of measured IC50 for the entry CC(C)Oc1ccc(CCC2(C3CCCC3)CC(=O)CC(=O)O2)cc1F (single isomer, unassigned) [J(1)] : 4400

IC50 measured on CC(C)(C#N)c1ccc(CCC2(C3CCCC3)CC(O)=C(Cc3nc4ncc(Cl)cn4n3)C(=O)O2)cc1Cl (single isomer, unassigned) [A(204)] = 17

The reported IC50 of the compound CCOC(=O)c1cnc2nc(SC3=C(O)CC(CCc4cc(Cl)c(OC)cc4OC)(C4CCCC4)OC3=O)nn2c1 (stereo not shown) [C(93)] was 14
